Biological target: 1-phosphatidylinositol 4,5-bisphosphate phosphodiesterase gamma-1 (Homo sapiens)
Assay: PLC-gamma1 enzyme inhibitors, primary screen, biochemical, fluorescence, purified enzyme (AID 720700)
Details: purified PLC-gamma1, fluorogenic substrate, at 12.2 µM
Screen size: about 370,000 compounds; about 3,100 (0.84%) were called active. Rule as the data show it: active = inhibition above about 9.5%; inactive = the rest. The sample as a whole holds a higher share of actives than the screen did.
Hello, when you answer, please use one of the following outcomes: true (1) = active, false (0) = inactive

>  <COMPOUND>
CCOc1ccccc1C1CC(c2cccc(NS(C)(=O)=O)c2)=NN1C(=O)c1ccccc1 (stereo unspecified)

>  <EXPERIMENTAL_TARGET>
1-phosphatidylinositol 4,5-bisphosphate phosphodiesterase gamma-1 (Homo sapiens)

>  <CAT>
true (1)

$$$$

What is the recorded call for this compound in the test? `Cc1ccc(NC(=O)Cc2cccc(F)c2)c(S(=O)(=O)N2CCOCC2)c1` false (0)

Another compound to check: `COc1ccc(OC)c(C(=O)c2coc3ccc(O)c(CN4CCOCC4)c23)c1` false (0)

====

Target: 1-phosphatidylinositol 4,5-bisphosphate phosphodiesterase gamma-1 (Homo sapiens)
Assay: PLC-gamma1 enzyme inhibitors, primary screen, biochemical, fluorescence, purified enzyme (AID 720700)
Conditions: purified PLC-gamma1, fluorogenic substrate, at 12.2 µM
Hit rate of the full screen: of about 370,000 compounds, about 3,100 (0.84%) were called active. Rule as the data show it: active = inhibition above about 9.5%; inactive = the rest. Shown is part of a subset that was picked to be rich in actives.
Hello, when you answer, please use one of the following outcomes: active, inactive

>  <COMPOUND>
CC(C)CCn1cnc2c1c(=O)n(CC(=O)NC(N)=O)c(=O)n2Cc1ccccc1

>  <CAT>
inactive

$$$$
>  <COMPOUND>
N#Cc1ccccc1OC[C@@H](O)CN1CCC(C(O)(c2ccccc2)c2ccccc2)CC1

>  <CAT>
inactive

$$$$
>  <COMPOUND>
COCc1cc(C(C)=O)ccc1OC

>  <CAT>
active

$$$$
>  <COMPOUND>
COc1ccc(NS(=O)(=O)c2ccc(C)c(C(=O)NCC(c3cccs3)N3CCOCC3)c2)cc1 (stereo not drawn)

>  <CAT>
inactive

$$$$
>  <COMPOUND>
C(=C\c1ccccc1)/CSc1nnc(-c2cccnc2)n1Cc1ccco1

>  <CAT>
inactive

$$$$

What is the recorded call for this compound in the test? COc1ccccc1C(=O)N1CCNC(=O)C1CC(=O)Nc1ccc(Cl)cc1 (stereo not drawn) inactive

====

Target: 1-phosphatidylinositol 4,5-bisphosphate phosphodiesterase gamma-1 (Homo sapiens)
Assay: PLC-gamma1 enzyme inhibitors, primary screen, biochemical, fluorescence, purified enzyme (AID 720700)
Details: purified PLC-gamma1, fluorogenic substrate, at 12.2 µM, active compounds read high
About 3,100 (0.84%) of roughly 370,000 compounds were called active. Shown is part of a subset that was picked to be rich in actives.
MEASURE_NAME: inhibition (%)
Give your result in % as a bare value.

>  <COMPOUND>
CCCCC1S/C(=N/N=C/c2cccs2)NC1=O (stereo not drawn)

>  <inhibition / %>
-0.02

$$$$
>  <COMPOUND>
O=C(NCc1ccc(Cl)cc1)C1CCCN(c2nc3ccccc3o2)C1 (stereo not drawn)

>  <inhibition / %>
1.63

$$$$

As a next step, examine the compound that follows.
So what's the measured inhibition for this one? `O=C(N1CCOCC1)N1CC[C@H]2[C@H](CCCN2Cc2ccc(F)cc2)C1` -1.67

====

The molecules listed here are annotated with their inhibition.
Molecular target: 1-phosphatidylinositol 4,5-bisphosphate phosphodiesterase gamma-1 (Homo sapiens) (UniProt P19174)
Sequence (P19174 whole entry, looked up): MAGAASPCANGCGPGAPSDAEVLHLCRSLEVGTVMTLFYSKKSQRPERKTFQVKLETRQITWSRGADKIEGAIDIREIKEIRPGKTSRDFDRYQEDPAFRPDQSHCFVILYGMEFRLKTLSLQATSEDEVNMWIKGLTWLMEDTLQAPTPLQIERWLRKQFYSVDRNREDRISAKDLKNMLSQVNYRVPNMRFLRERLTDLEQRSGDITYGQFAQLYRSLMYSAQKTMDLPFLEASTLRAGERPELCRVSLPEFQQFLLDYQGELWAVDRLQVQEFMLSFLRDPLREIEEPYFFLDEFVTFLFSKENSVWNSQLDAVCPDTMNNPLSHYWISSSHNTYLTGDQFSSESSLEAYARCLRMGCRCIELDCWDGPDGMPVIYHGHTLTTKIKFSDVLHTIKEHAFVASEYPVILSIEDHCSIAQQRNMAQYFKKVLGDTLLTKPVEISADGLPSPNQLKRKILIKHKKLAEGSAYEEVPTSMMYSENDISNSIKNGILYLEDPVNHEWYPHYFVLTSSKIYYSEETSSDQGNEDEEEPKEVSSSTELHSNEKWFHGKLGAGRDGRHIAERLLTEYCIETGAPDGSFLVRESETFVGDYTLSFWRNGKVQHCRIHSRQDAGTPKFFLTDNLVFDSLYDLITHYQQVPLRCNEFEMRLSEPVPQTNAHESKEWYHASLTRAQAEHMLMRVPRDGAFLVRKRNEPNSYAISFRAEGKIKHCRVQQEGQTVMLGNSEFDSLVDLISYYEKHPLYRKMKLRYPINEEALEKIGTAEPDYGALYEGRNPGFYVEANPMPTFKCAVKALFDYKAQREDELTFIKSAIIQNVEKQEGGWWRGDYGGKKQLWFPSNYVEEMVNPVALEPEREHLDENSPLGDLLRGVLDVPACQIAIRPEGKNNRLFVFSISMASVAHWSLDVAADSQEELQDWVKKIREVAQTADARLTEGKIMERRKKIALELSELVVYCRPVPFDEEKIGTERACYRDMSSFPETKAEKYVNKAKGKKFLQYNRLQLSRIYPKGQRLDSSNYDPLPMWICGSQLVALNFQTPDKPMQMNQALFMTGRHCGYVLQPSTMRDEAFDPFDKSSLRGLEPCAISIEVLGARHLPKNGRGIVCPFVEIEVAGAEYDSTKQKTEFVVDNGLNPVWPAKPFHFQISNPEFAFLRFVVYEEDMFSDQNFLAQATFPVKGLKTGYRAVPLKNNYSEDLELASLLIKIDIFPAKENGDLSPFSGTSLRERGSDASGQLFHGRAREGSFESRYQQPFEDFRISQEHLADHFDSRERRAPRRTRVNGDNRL
Assay: PLC-gamma1 enzyme inhibitors, primary screen, biochemical, fluorescence, purified enzyme (AID 720700)
Conditions: purified PLC-gamma1, fluorogenic substrate, at 12.2 µM, active compounds read high
Out of some 370,000 compounds screened, about 3,100 (0.84%) were called active. The full list was thinned out, with actives kept by preference.
Give your result in % as a bare value.

These solved cases illustrate the format of a correct answer.
>  <MOLECULE>
O=C(c1cccc(N2CCCC2=O)c1)N1CCOCC1

>  <MEASURE_NAME>
inhibition

>  <MEASURED_VALUE>
-4.42

$$$$
>  <MOLECULE>
CS(=O)(=O)Nc1cccc(C2=NN(C(=O)c3cccc(F)c3)C(c3cccs3)C2)c1 (stereo not drawn)

>  <MEASURE_NAME>
inhibition

>  <MEASURED_VALUE>
-0.97

$$$$
>  <MOLECULE>
CC(=O)c1c(C)[nH]c(C(=O)OCC(=O)Nc2sc3c(c2C#N)CCCC3)c1C

>  <MEASURE_NAME>
inhibition

>  <MEASURED_VALUE>
-7.9

$$$$
>  <MOLECULE>
Cc1cc(C)cc(NC(=O)N2CCC(N(C)CCC(C)C)CC2)c1

>  <MEASURE_NAME>
inhibition

>  <MEASURED_VALUE>
3.12

$$$$
>  <MOLECULE>
N#Cc1c(NC(=O)c2ccc(N3CCOCC3)c([N+](=O)[O-])c2)sc2c1CCCC2

>  <MEASURE_NAME>
inhibition

>  <MEASURED_VALUE>
3.4

$$$$

So what's the measured inhibition for this one? `COc1cc(NC(=O)COC(=O)c2ccc([N+](=O)[O-])s2)cc(OC)c1OC` 16.4

Another molecule to check: O=C1CCC2(CCC(c3ccc(Cl)cc3)CC2)N1CCO (stereo not drawn) 1.68

Another molecule to check: O=C(NC1CCCCN(Cc2cccc(C(F)(F)F)c2)C1=O)c1ccccc1I (stereo not drawn) -1.03

====

The compounds listed here are annotated with their inhibition.
Target: 1-phosphatidylinositol 4,5-bisphosphate phosphodiesterase gamma-1 (Homo sapiens) (UniProt P19174)
Assay: PLC-gamma1 enzyme inhibitors, primary screen, biochemical, fluorescence, purified enzyme (AID 720700)
Conditions: purified PLC-gamma1, fluorogenic substrate, at 12.2 µM, active compounds read high
The campaign covered roughly 370,000 compounds. About 3,100 (0.84%) were called active. Only a selection was taken, and actives are over-represented in it overall.
Give your result in % as a bare value.

These solved cases illustrate the format of a correct answer.
>  <COMPOUND>
COCCNC(=O)C(c1ccc(C)cc1)N(C(=O)CCC(=O)Nc1ccccn1)c1cccc(C)c1 (configuration not stated)

>  <inhibition (%)>
5.63

$$$$
>  <COMPOUND>
CC(=O)O[C@@]1(C(C)=O)CCC2[C@H]3C=C(C)C4=CC(=O)CC[C@@]4(C)C3CC[C@]21C (some centres not stated)

>  <inhibition (%)>
-2.78

$$$$
>  <COMPOUND>
Cc1cccc(NS(=O)(=O)c2ccc(C)c(C(=O)NCC(c3ccccc3)N(C)C)c2)c1 (configuration not stated)

>  <inhibition (%)>
2.63

$$$$
>  <COMPOUND>
CCc1ccc(-c2nc(SCC(=O)NC3CCCC3)n[nH]2)cc1

>  <inhibition (%)>
9.58

$$$$

So what's the measured inhibition for this one? `COC(=O)c1ccccc1NC(=O)CSc1n[nH]c(-c2ccncc2)n1` 1.06

Another compound to check: `COc1ccccc1CNC(=O)CCCN1C(=O)NC2(CCCC2)C1=O` 1.01

Another compound to check: O=C(Nc1cccc(Cl)c1)OC1CC2CC1[C@H]1CCCCN1[C@H]2Cc1ccccc1 (some centres not stated) -19.3

Another compound to check: `COc1ccc(N2CCN(CCNS(=O)(=O)c3ccc(Cl)s3)CC2)cc1` -2.58

Another compound to check: `COC(=O)[C@H](C(C)C)N(CCCc1cn(Cc2ccccc2)nn1)S(=O)(=O)c1ccc(F)cc1Br` 0.35

Another compound to check: `CSc1ccc(C=Nn2c(-c3ccc(F)cc3)n[nH]c2=S)cc1` 3.12

Another compound to check: O=C(NC1CCCC1)C1CSCCS(=O)(=O)N1Cc1ccccc1 (configuration not stated) -0.17

Another compound to check: `Nn1cnnc1N/N=C/c1cc([N+](=O)[O-])c(Cl)cc1Cl` 13.2

Another compound to check: COCCNC(=O)C(c1ccc(O)cc1)N(C(=O)CCC(=O)Nc1nccs1)c1ccc(C)cc1 (configuration not stated) 15.2

Another compound to check: `Cc1ccc(-c2cn(S(=O)(=O)c3cccc([N+](=O)[O-])c3)nc2N)cc1` 11.4

Another compound to check: `CCc1ccccc1NC(=O)CSc1nnc(-c2cccs2)o1` -2.39

Another compound to check: CC(C)Cn1cnc2c1c(=O)n(CC(O)c1ccccc1)c(=O)n2CC(C)C (configuration not stated) 16.4

Another compound to check: `COC(=O)[C@]12C[C@H](CC(=O)NCc3cccc4ccccc34)C(=O)N(CCc3ccc(OC)c(OC)c3)C1=C[C@H](C1CCCC1)O[C@@H]2C` 4.89
